Values from patent US8318731B2

Tested on: A2780
method: Cellular proliferation assay (Alamar blue), A2780
Assay type: cell-based
runParameters: Homo sapiens, A2780, A2780 cells; 10% FCS; 72 h with compound; Alamar blue 24 h; read-out: pIC50 A2780 (converted)
Please respond with reported IC50 for every item in the list.

Examples from the recorded data:
compound="COc1ccc2cc1OCCCCC(=O)N1CCN(CC1)Cc1c[nH]c3ncnc(c13)N2 [Compound 103]" quantitykind=IC50 endpointresult="> 10 µM"
compound="CN1CCN(c2ccc3cc2OCCCC(=O)N2CCN(CC2)Cc2c[nH]c4ncnc(c24)N3)CC1 [Compound 109]" quantitykind=IC50 endpointresult="> 10 µM"
compound="COc1cc2cc(c1OC)CCC(=O)N(C)CCCN(C)Cc1c[nH]c3ncnc(c13)N2 [Compound 30]" quantitykind=IC50 endpointresult="> 10 µM"
compound="CN1CCN(C)C(=O)CCc2cc(ccc2N2CCOCC2)Nc2ncnc3[nH]cc(c23)C1 [Compound 45]" quantitykind=IC50 endpointresult="> 10 µM"
compound="CN1CCN(c2ccc3cc2OCCCCC(=O)N2CCN(CC2)Cc2c[nH]c4ncnc(c24)N3)CC1 [Compound 108]" quantitykind=IC50 endpointresult="> 10 µM"
compound="COc1cc2cc(c1OC)OCCCC(=O)N1CCN(CC1)Cc1c[nH]c3ncnc(c13)N2 [Compound 112]" quantitykind=IC50 endpointresult="> 10 µM"
compound="COCCN1CC(=O)N(C)CCCc2c[nH]c3ncnc(c23)Nc2ccc(OC)c(c2)C1 [Compound 36]" quantitykind=IC50 endpointresult="> 10 µM"
compound="COc1ccc2cc1CN(C(C)C)CC(=O)N(C)CCCc1c[nH]c3ncnc(c13)N2 [Compound 37]" quantitykind=IC50 endpointresult="> 10 µM"
compound="COc1ccc2cc1OCC(=O)N(C)CCCN(Cc1ccncc1)Cc1c[nH]c3ncnc(c13)N2 [Compound 62]" quantitykind=IC50 endpointresult="> 10 µM"
compound="COc1ccc2cc1OCC(=O)N1CCC[C@H]1CN(C)CCCc1c[nH]c3ncnc(c13)N2 [Compound 27]" quantitykind=IC50 endpointresult="> 10 µM"

For the 4 compounds below, give their IC50 values.
1. CN1CCCN(C)C(=O)COc2cc(ccc2OCCN(C)c2nccs2)Nc2ncnc3[nH]cc(c23)C1 [Compound 157]
2. COc1ccc2cc1OCC(=O)N(C(C)C)CCCN(C)Cc1c[nH]c3ncnc(c13)N2 [Compound 12]
3. CN1CCN(C)C(=O)COc2cccc(c2)Nc2ncnc3[nH]cc(c23)C1 [Compound 58]
4. COc1cc2cc(c1OC)OCCCCC(=O)N1CCN(CC1)Cc1c[nH]c3ncnc(c13)N2 [Compound 111]

Given back:
["0.501 µM", "5.01 µM", "3.16 µM", "> 10 µM"]

Please supply IC50 for each of the following items, keeping them in order.
1. CN1CCCN(C)C(=O)COc2cc(ccc2OCCNc2ncccn2)Nc2ncnc3[nH]cc(c23)C1 [Compound 159]
2. COCCN1CC(=O)N(C)CCCc2c[nH]c3ncnc(c23)Nc2cc(c(OC)c(OC)c2)C1 [Compound 124]
3. CN1CCCN(C)C(=O)Cc2cccc(c2)Nc2ncnc3[nH]cc(c23)C1 [Compound 24]

Given back:
["1.58 µM", "> 10 µM", "5.01 µM"]
